- Target Or Test System: binding between KRS and AIMP2 (Homo sapiens, UniProt Q15046)
- Construct: expressed in transfected cells; host or cells: yeast cells (co-transformed)
- Sequence (Q15046 whole entry): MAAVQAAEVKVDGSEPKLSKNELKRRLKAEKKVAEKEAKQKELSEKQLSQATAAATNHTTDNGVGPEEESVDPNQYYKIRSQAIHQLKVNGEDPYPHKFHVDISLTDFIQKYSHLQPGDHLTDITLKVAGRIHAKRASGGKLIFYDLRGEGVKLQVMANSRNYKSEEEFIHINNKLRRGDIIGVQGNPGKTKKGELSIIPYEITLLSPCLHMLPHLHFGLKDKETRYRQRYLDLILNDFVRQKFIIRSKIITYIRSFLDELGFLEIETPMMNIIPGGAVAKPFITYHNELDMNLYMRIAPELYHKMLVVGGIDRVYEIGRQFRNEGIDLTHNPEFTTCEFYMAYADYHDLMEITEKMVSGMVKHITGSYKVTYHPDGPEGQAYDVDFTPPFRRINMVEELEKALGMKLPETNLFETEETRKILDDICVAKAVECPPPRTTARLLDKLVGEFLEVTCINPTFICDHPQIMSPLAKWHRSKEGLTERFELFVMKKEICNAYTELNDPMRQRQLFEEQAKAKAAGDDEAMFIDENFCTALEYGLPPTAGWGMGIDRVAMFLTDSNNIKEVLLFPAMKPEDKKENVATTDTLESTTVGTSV
- Method Summary: Yeast Two Hybrid specificity test, LexA-KRS / B42-AIMP2 co-transformed yeast cells
- Format: cell-based
- Condition Set: 1 μL of 20 mM DMSO solution per 200 μL culture; 30° C., 6 days; absorbance 540 nm; non-treated control = 100%
Measured Parameter: Yeast cell proliferation rates KRS-AIMP2 (%)

[
  {
    "Molecule": "CCC(C(=O)O)n1c(=NC(=O)c2ccc(C)cc2)sc2cccc(OC)c21 (stereo not drawn)",
    "Observed Result": 84.6
  },
  {
    "Molecule": "CCC(C(=O)O)n1c(=NC(=O)c2cccc(F)c2)sc2c(F)c(F)ccc21 (stereo not drawn)",
    "Observed Result": 99.0
  },
  {
    "Molecule": "CCOc1ccc2c(c1)sc(=NC(=O)c1ccc(F)cc1)n2C(CC)C(=O)O (stereo not drawn)",
    "Observed Result": 91.0
  },
  {
    "Molecule": "CCC(C(=O)O)n1c(=NC(=O)c2ccc(C)cc2)sc2c(F)cccc21 (stereo not drawn)",
    "Observed Result": 88.5
  },
  {
    "Molecule": "Cc1ccc2c(sc(=NC(=O)c3cccc(Cl)c3)n2C(C)C(=O)O)c1F (stereo not drawn)",
    "Observed Result": 99.9
  },
  {
    "Molecule": "CCC(C(=O)O)n1c2c(sc1=NC(=O)c1cccc(Cl)c1)CCCC2 (stereo not drawn)",
    "Observed Result": 92.0
  },
  {
    "Molecule": "CCC(C(=O)O)n1c(=NC(=O)c2ccc(C)cc2)sc2c(F)c(F)ccc21 (stereo not drawn)",
    "Observed Result": 101.6
  },
  {
    "Molecule": "CC(C(=O)O)n1c(=NC(=O)c2cccc(C(F)(F)F)c2)sc2ccc(F)cc21 (stereo not drawn)",
    "Observed Result": 97.2
  },
  {
    "Molecule": "CCC(C(=O)O)n1c(=NC(=O)c2cccc(C(F)(F)F)c2)sc2ccccc21 (stereo not drawn)",
    "Observed Result": 95.0
  },
  {
    "Molecule": "CCOc1ccc2c(c1)sc(=NC(=O)c1ccc(C)cc1)n2C(CC)C(=O)O (stereo not drawn)",
    "Observed Result": 106.4
  },
  {
    "Molecule": "CCC(C(=O)O)n1c(=NC(=O)c2ccc(C)cc2)sc2cc(C(F)(F)F)ccc21 (stereo not drawn)",
    "Observed Result": 102.4
  },
  {
    "Molecule": "CCC(C(=O)O)n1c(=NC(=O)c2ccc(C)cc2)sc2c(C)cccc21 (stereo not drawn)",
    "Observed Result": 99.0
  },
  {
    "Molecule": "O=C(O)Cn1c(=NC(=O)c2cccc(Cl)c2)sc2ccc(Cl)cc21",
    "Observed Result": 89.6
  },
  {
    "Molecule": "Cc1cccc2c1sc(=NC(=O)c1cccc(Cl)c1)n2C(C)C(=O)O (stereo not drawn)",
    "Observed Result": 89.4
  },
  {
    "Molecule": "CC(C(=O)O)n1c(=NC(=O)c2cccc(C(F)(F)F)c2)sc2ccccc21 (stereo not drawn)",
    "Observed Result": 82.1
  },
  {
    "Molecule": "CC(C(=O)O)n1c(=NC(=O)c2cccc(Cl)c2)sc2c(F)c(Cl)ccc21 (stereo not drawn)",
    "Observed Result": 108.2
  },
  {
    "Molecule": "CCC(C(=O)O)n1c(=NC(=O)c2cccc(Cl)c2)sc2cc(C)ccc21 (stereo not drawn)",
    "Observed Result": 97.7
  },
  {
    "Molecule": "CC(C(=O)O)n1c(=NC(=O)c2ccc(F)c(F)c2)sc2cc(F)c(F)cc21 (stereo not drawn)",
    "Observed Result": 96.7
  }
]

Data provenance is patent US20150011528A1.
